- ASSAY TARGET: T1, CEACAM1 (Sino Biological) (human, UniProt P13688 35-428, limits assumed)
- T1 construct: may be the same as CEACAM1-HIS; also called hCEACAM1; biotinylated soluble CEACAM1
- T1 sequence: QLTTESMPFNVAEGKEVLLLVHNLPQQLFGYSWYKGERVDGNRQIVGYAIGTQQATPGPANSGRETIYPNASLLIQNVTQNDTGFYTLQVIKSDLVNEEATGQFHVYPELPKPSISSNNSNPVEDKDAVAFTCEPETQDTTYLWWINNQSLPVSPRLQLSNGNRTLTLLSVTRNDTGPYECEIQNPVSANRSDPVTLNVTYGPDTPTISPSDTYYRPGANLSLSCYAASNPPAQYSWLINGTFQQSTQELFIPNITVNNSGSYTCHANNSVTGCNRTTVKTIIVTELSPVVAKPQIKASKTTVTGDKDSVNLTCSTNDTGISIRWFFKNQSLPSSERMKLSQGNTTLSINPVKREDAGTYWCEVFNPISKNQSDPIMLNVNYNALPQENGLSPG
- ASSAY NOTES: SPR single-cycle
MEASUREMENT LABEL: fold better than Parent (KD) (fold)
# output: bare number, implied unit fold

See these solved cases before continuing.
INSERT INTO measurements (binder, unit_of_measurement, reported_value) VALUES
  ('He17/L16 (antibody, IgG4, V domains shown, IgG4 S241P, kappa; also called 17 / 16) VH: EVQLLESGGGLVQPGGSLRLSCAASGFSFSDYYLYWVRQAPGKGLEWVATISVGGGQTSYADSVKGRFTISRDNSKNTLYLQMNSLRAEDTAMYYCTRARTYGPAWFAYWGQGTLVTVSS VL: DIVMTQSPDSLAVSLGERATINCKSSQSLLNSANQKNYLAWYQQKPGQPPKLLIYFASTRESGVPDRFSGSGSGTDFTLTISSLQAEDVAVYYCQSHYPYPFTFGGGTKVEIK', 'fold', 2.36),
  ('He1/L6 (antibody, IgG4, V domains shown, IgG4 S241P, kappa) VH: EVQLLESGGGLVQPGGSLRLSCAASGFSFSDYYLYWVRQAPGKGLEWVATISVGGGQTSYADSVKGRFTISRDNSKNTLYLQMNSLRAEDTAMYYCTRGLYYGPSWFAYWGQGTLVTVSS VL: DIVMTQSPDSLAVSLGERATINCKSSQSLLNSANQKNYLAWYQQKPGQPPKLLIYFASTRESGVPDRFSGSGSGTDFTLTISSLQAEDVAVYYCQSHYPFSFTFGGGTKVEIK', 'fold', 1.37);

In plain terms, He6/L20 (antibody, IgG4, V domains shown, IgG4 S241P, kappa) VH: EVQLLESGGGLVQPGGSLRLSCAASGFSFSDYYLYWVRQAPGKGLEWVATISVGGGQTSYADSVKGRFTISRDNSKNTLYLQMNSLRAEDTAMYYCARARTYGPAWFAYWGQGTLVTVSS VL: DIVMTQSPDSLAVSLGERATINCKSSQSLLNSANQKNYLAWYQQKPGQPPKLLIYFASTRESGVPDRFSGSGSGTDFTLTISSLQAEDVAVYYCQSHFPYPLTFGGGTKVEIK has a documented fold better than Parent (KD) of 1.79

Entry He4/L17 (antibody, IgG4, V domains shown, IgG4 S241P, kappa) VH: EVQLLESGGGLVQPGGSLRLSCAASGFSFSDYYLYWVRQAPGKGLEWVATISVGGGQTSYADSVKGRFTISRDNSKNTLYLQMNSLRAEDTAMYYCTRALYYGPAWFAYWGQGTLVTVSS VL: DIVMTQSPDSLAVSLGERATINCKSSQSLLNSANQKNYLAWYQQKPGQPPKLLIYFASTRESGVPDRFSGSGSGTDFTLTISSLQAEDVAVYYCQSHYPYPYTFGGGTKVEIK , fold better than Parent (KD) reported as 2.55

GET /value?item= Parent VH/L2 (antibody, IgG4, V domains shown, IgG4 S241P, kappa) VH: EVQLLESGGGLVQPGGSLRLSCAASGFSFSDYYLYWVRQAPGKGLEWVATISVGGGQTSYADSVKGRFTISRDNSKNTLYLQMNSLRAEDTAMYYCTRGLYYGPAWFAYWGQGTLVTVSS VL: DIVMTQSPDSLAVSLGERATINCKSSQSLLNSANQKNYLAWYQQKPGQPPKLLIYFASTRESGVPDRFSGSGSGTDFTLTISSLQAEDVAVYYCQSHYPFPYTFGGGTKVEIK &field=fold better than Parent (KD) returns 2.26

Sourced from patent US20250388666A1
